Quick reference for fold induction at 0.5 µM among some molecules
test system: inducible human Hsp70; test: Hsp70 RNA induction by quantitative PCR analysis in Ramos B cells; type: cell-based; conditions: Homo sapiens, 500 nM compound, 6 hours, read-out: fold induction over DMSO
Answer as a number with no unit attached.

Molecule	Measured
CN(NC(=O)CS(=O)(=O)NN(C)C(=S)c1ccccc1)C(=S)c1ccccc1	29.3
COP(=O)(CP(=O)(NN(C)C(=O)c1ccccc1)OC)NN(C)C(=O)c1ccccc1 (centres unmarked)	0.35
CN(NC(=O)CC(=O)NN(C)/C(=N/S(C)(=O)=O)c1ccccc1)/C(=N/S(C)(=O)=O)c1ccccc1	1.87
COP(=O)(CP(=O)(NN(C)C(=S)c1ccccc1)OC)NN(C)C(=S)c1ccccc1 (centres unmarked)	0.85

Now for another entry.
Recorded fold induction at 0.5 µM for `CNN=C(C(=O)NN(C)C(=S)c1ccccc1)C(=O)NN(C)C(=S)c1ccccc1` , please?
46.9

These measurements were taken from patent US9156783B2.
